TEST_DETAILS: Nrf2 qHTS screen for inhibitors: counterscreen for cytotoxicity
CONDITION_SET: A549 ARE-Fluc cells, CellTiter-Fluor viability, 18-24 h; series mostly up to 46 µM
In all, about 390,000 compounds went through this assay and about 610 (0.16%) were called active. Not shown: some 4% with an inconclusive outcome. Calls come from the whole dose curve; as a rule, active = well fitted inhibition curve with a large enough effect; inconclusive = small, poorly fitted or top-dose-only effect, or effect the other way, or another doubt; inactive = no such curve, though single readings can be large or run the other way. The list comes from a sample in which actives are over-represented; it also holds close analogues and randomly drawn compounds.
I would appreciate it if you answered using one of these outcomes: active, inactive

Please review the following examples before continuing.
| COMPOUND | GROUP |
| --- | --- |
| O=C(CNC(=O)c1ccccc1)OC(C(=O)Nc1cc([N+](=O)[O-])ccc1F)c1ccccc1 (configuration not stated) | inactive |
| CC(/C=C/c1ccco1)=N/NC(=O)C1COc2ccccc2O1 (configuration not stated) | inactive |
| Cc1ccc(NS(=O)(=O)c2ccc(C(=O)NCCCN3CCOCC3)cc2)cc1 | inactive |
| CCN(CC)c1nc(C#N)nc(OC)n1 | inactive |
| CC1CC(=NNC(=O)C2COc3ccccc3O2)CC(C)(C)C1 (configuration not stated) | inactive |
| Cc1nc(N2CCOCC2)c2c(C(=O)NCc3cccc(Cl)c3)c(C)oc2n1 | inactive |

[in] Query: recorded result category for `CNC(=O)c1ccsc1NC(=O)c1ccc(S(=O)(=O)N2CCc3ccccc32)cc1` in this test
[out] inactive

[in] Tell me the recorded outcome of this test for `O=S1(=O)N=C(Oc2cccc(Br)c2)c2ccccc21` .
[out] inactive

[in] Which outcome did this test record for the compound `C=C1CCN(Cc2ccc(OC)cc2)S(=O)(=O)c2ccccc21` ?
[out] inactive

[in] Could you kindly confirm the outcome this assay logged for CC(Nc1ncnc2ccc(-c3ccc4c(c3)OCO4)cc12)c1ccco1 (configuration not stated) ?
[out] inactive

[in] Would you mind telling me which call this test gave `O=C(NC(Nc1nc2ccc([N+](=O)[O-])cc2s1)(C(F)(F)F)C(F)(F)F)c1ccccc1` ?
[out] active

[in] What did the test return for COc1cc(OC)c2c(c1C(CCN1CCCCC1)c1ccc(N(C)C)cc1)OC(=O)CC2c1ccc(N(C)C)cc1 (configuration not stated) ?
[out] inactive

[in] What call does the record list for `Cc1noc(C)c1-c1ccc2ncnc(NCc3ccc(F)c(F)c3)c2c1` ?
[out] inactive

[in] What did the test return for COc1cc(NS(=O)(=O)c2ccc3c(c2)OCC(C(=O)N2CCCC2)O3)cc(OC)c1 (configuration not stated) ?
[out] inactive

[in] Which outcome was entered for the compound O=C(Nc1ncc([N+](=O)[O-])s1)C1COc2ccccc2O1 (configuration not stated) in this test?
[out] active

[in] Recorded test call requested for `CNC(=O)[C@]1(C(F)(F)F)C[C@H](CCc2ccccc2)CCCO1`
[out] inactive

[in] Status in this test for CCOc1ccc(-c2n[nH]c3c2C(c2ccccc2OC)N(c2ccc(Br)cc2)C3=O)cc1 (configuration not stated) ?
[out] inactive

[in] Status in this test for `NS(=O)(=O)c1ccc2nc(NC(=O)COc3ccccc3)sc2c1` ?
[out] inactive

[in] In this assay, the call recorded for `CC(C)c1ccc(/C=C/C(=O)NCCCN2CCOCC2)cc1` was what?
[out] inactive

[in] Hello, I am checking results. What call was entered for `O=C(Nc1nnc(S(=O)(=O)N2CCCc3ccccc32)s1)c1cccc(F)c1` ?
[out] inactive

[in] For `Cc1cc2c(s1)c1cnn(Cc3c(F)cccc3Cl)c(=O)c1n2C` , what call appears in the results of this test?
[out] inactive

[in] Outcome logged for `COc1cccc(C(=O)NC2CCN(C#N)CC2)c1` in this assay:
[out] inactive
